subject of test: Delta-type opioid receptor (Rattus norvegicus, UniProt P33533)
Sequence (P33533 whole entry): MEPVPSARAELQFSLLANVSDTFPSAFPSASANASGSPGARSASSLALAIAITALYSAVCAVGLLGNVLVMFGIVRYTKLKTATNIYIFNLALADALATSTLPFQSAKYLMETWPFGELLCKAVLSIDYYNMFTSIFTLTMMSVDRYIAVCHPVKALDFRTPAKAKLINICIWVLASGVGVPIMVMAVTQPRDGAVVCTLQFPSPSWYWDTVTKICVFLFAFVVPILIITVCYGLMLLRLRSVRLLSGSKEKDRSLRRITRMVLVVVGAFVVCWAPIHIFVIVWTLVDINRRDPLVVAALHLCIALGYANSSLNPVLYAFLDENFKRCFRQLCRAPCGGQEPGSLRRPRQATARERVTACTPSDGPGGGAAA
protocol: Binding affinity at Opioid receptor delta 1 using rat brain receptor (P2 synaptosome) assay
pKi: −log10 of the molar value. Square brackets hold non-standard residues; d marks the D form. Peptide text beside a SMILES is read from it. * marks the point of attachment. Dmt = Cc1cc(O)cc(C)c1C[C@H](N)C(=O)O; Tic = O=C(O)[C@@H]1Cc2ccccc2CN1; NHBn = c1ccc(CN*)cc1

>  <compound>
Cc1cc(O)cc(C)c1C[C@H](N)C(=O)N1Cc2ccccc2C[C@H]1C(=O)NCCc1nc2ccccc2[nH]1

>  <pKi>
10.17

$$$$
>  <compound>
Cc1cc(O)cc(C)c1C[C@H](N)C(=O)N1Cc2ccccc2C[C@H]1c1nc2ccccc2[nH]1

>  <pKi>
9.89

$$$$
>  <compound>
Cc1cc(O)cc(C)c1C[C@H](N)C(=O)N1Cc2ccccc2CC1CO (some centres undefined)

>  <pKi>
9.36

$$$$
>  <compound>
Cc1cc(O)cc(C)c1C[C@H](N)C(=O)N1Cc2ccccc2C[C@H]1C(=O)NCC(=O)NCc1ccccc1 (H-[Dmt]-[Tic]-Gly-NHBn)

>  <pKi>
10.51

$$$$

* * *

subject of test: Mu-type opioid receptor (Cavia porcellus, UniProt P97266)
Sequence (P97266 whole entry): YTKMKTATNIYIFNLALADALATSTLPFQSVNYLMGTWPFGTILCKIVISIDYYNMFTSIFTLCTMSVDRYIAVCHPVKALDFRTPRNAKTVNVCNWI
protocol: Negative logarithm of the molar concentration of an agonist to produce 50% of the maximum effect in guinea pig ileum (mu receptor) determined
Format: functional, tissue-based
measure name: EC50 (nM)

>  <smiles input>
C[C@@H](NC(=O)[C@@H](N)Cc1ccc(O)cc1)C(=O)N[C@@H](Cc1ccccc1)C(=O)NCC(=O)N[C@@H](Cc1ccc(O)cc1)C(=O)N1CCC[C@H]1C(=O)N[C@@H](CO)C(N)=O

>  <measure name>
EC50

>  <result unit>
nM

>  <readout value>
0.708

$$$$

* * *

This section lists pKi readings for UniProtKB P33535.
Sequence (P33535 whole entry): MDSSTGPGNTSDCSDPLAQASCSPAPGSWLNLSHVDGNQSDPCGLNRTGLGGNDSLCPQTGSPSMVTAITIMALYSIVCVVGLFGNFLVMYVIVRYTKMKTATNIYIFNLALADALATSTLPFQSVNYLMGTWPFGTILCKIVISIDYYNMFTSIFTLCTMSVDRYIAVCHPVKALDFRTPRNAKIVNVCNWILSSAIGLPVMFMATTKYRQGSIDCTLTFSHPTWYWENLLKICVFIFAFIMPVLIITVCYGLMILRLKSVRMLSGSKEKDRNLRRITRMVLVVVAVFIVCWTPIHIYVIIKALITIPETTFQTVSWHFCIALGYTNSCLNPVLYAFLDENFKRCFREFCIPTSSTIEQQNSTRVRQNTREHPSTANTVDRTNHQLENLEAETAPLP
pKi: −log10 of the molar value. Square brackets hold non-standard residues; d marks the D form. Peptide text beside a SMILES is read from it. * marks the point of attachment. Dmt = Cc1cc(O)cc(C)c1C[C@H](N)C(=O)O; Tic = O=C(O)[C@@H]1Cc2ccccc2CN1; NHBn = c1ccc(CN*)cc1
measure name: pKi

>  <molecule>
Cc1cc(O)cc(C)c1C[C@H](N)C(=O)N1Cc2ccccc2C[C@H]1C(=O)NCC(=O)NCc1ccccc1 (H-[Dmt]-[Tic]-Gly-NHBn)

>  <measure name>
pKi

>  <readout value>
9.80

$$$$
>  <molecule>
Cc1cc(O)cc(C)c1C[C@H](N)C(=O)N1Cc2ccccc2C[C@H]1c1nc2ccccc2[nH]1

>  <measure name>
pKi

>  <readout value>
8.14

$$$$
>  <molecule>
Cc1cc(O)cc(C)c1C[C@H](N)C(=O)N1Cc2ccccc2CC1CO (some centres undefined)

>  <measure name>
pKi

>  <readout value>
6.82

$$$$
>  <molecule>
Cc1cc(O)cc(C)c1C[C@H](N)C(=O)N1Cc2ccccc2C[C@H]1C(=O)NCCc1nc2ccccc2[nH]1

>  <measure name>
pKi

>  <readout value>
8.26

$$$$

src = ChEMBL document CHEMBL1135711
